target: HMGCR (TM1-8)-GFP (Cricetulus griseus, UniProt P00347); test: HMGCR (TM1-8)-GFP fluorescent assay (high-content imaging) in CHG cells; settings: read-out: Mean (HMGCR (TM1-8)-GFP signal relative to 0 μM = 100)
Endpoint Label: remaining activity at 2.5 µM

Consider the following illustrative entries.
Compound: C[C@H](CCC(C)(C)O)C1CCC2C3C(CC[C@@]21C)[C@@]1(C)CC[C@H](O)C(C)(C)C1=C[C@@H]3O (stereo partly shown)
Endpoint Label: remaining activity at 2.5 µM
Reading: 78.7%
//
Compound: C[C@H](CCCCC(C)(C)O)C1CCC2C3C(CC[C@@]21C)[C@@]1(C)CC[C@H](O)C(C)(C)C1=C[C@@H]3O (stereo partly shown)
Endpoint Label: remaining activity at 2.5 µM
Reading: 21.6%
//
Compound: CC(O)CCCC[C@@H](C)C1CCC2C3C(CC[C@@]21C)[C@@]1(C)CC[C@H](O)C(C)(C)C1=C[C@@H]3O (stereo partly shown)
Endpoint Label: remaining activity at 2.5 µM
Reading: 26.9%
//
Compound: COCCC[C@@H](C)C1CCC2C3C(CC[C@@]21C)[C@@]1(C)CC[C@H](O)C(C)(C)C1=C[C@@H]3O (stereo partly shown)
Endpoint Label: remaining activity at 2.5 µM
Reading: 43.1%
//
Compound: COC(=O)CC[C@@H](C)C1CCC2C3C(CC[C@@]21C)[C@@]1(C)CC[C@H](O)C(C)(C)C1=C[C@@H]3O (stereo partly shown)
Endpoint Label: remaining activity at 2.5 µM
Reading: 78.9%
//
Compound: CCC(O)CCCCC[C@@H](C)C1CCC2C3C(CC[C@@]21C)[C@@]1(C)CC[C@H](O)C(C)(C)C1=C[C@@H]3O (stereo partly shown)
Endpoint Label: remaining activity at 2.5 µM
Reading: 41.6%

Now turn to the next compound.
For the compound CC(O)CCCCC[C@@H](C)C1CCC2C3C(CC[C@@]21C)[C@@]1(C)CC[C@H](O)C(C)(C)C1=C[C@@H]3O (stereo partly shown) , give its measured remaining activity at 2.5 µM value.
19.5%

====

Target: HMGCR (TM1-8)-GFP (Cricetulus griseus)
Sequence (P00347 1-346): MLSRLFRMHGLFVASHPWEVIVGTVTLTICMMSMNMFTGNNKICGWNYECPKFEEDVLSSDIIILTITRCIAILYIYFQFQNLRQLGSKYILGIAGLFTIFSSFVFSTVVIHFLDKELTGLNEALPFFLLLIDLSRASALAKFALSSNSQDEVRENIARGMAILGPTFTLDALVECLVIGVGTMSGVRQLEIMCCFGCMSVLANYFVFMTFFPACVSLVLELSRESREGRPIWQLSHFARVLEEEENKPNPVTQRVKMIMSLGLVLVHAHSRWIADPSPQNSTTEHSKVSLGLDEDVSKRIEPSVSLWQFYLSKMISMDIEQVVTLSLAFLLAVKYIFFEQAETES
Assay: HMGCR (TM1-8)-GFP fluorescent assay (high-content imaging) in CHG cells
Conditions: 16 h, read-out: HMGCR (TM1-8)-GFP fluorescent intensity, mean
Quick reference: remaining activity at 30 µM of the listed items.
Output spec: scalar in %, unitless text.

In the examples that follow, each entry is paired with its recorded remaining activity at 30 µM.
Compound: C=CCC1(CC=C)C2=CCC3C(CC[C@@]4(C)C3CC[C@@H]4[C@H](C)CCCC(C)C)[C@@]2(C)CC[C@@H]1O (some centres unmarked)
Unit Abbreviation: %
remaining activity at 30 µM: 90.8

Compound: CC(C)CCC[C@@H](C)[C@H]1CC[C@H]2[C@@H]3CC=C4C[C@@H](O)CC[C@]4(C)[C@H]3CC[C@]12C
Unit Abbreviation: %
remaining activity at 30 µM: 47

Compound: COCCC1(CCOC)C2=CCC3C(CC[C@@]4(C)C3CC[C@@H]4[C@H](C)CCCC(C)C)[C@@]2(C)CC[C@@H]1O (some centres unmarked)
Unit Abbreviation: %
remaining activity at 30 µM: 98.6

Compound: CCC1(CCOC)C2=CCC3C(CCC4(C)C(C(C)CCCC(C)C)CCC34)C2(C)CCC1O (centres unmarked)
Unit Abbreviation: %
remaining activity at 30 µM: 95.4

Query compound follows.
Tell me remaining activity at 30 µM reported for CC(C)CCC[C@@H](C)[C@H]1CC[C@H]2[C@@H]3CC=C4C(C)(C)[C@@H](O)CC[C@]4(C)[C@H]3CC[C@]12C
35.9
